Tested on: Ba/F3 parental
assayProcedure: cells
setupConditions: Mus musculus, BaF3, 72 h, read-out: IC50 (nM) Ba/F3 parental
Reported IC50 values for a set of molecules
Answer in nM, number only, no unit symbol.

For orientation, consider the following solved cases.
>>> print(df.to_string())
                                   molecule  readoutvalue
0  [2H]C([2H])(c1ccc(OC)nc1)N1C2CC1CN(c1ccc(-c3cc(OC[C@H]4CNCCO4)cn4ncc(C#N)c34)cn1)C2 [Example 8]          3360
1  [2H]C([2H])(c1ccc(OC)nc1)N1C2CC1CN(c1ccc(-c3cc(OCC(C)(C)O)cn4ncc(C#N)c34)cn1)C2 [Example 11]          3510

Could you now consider this next molecule?
Summary for this molecule, [2H]C([2H])([2H])Oc1ccc(CN2C3CC2CN(c2ccc(-c4cc(OCC(C)(C)O)cn5ncc(C#N)c45)cn2)C3)cn1 [Example 12] : IC50 is 5930
